# Test system: rainbow trout (Oncorhynchus mykiss)
# EXPERIMENT SUMMARY: Contribution of tissues to fish body burden
# Assay type: in vivo
# CONDITION PARAMETERS: fraction, Fish #3
Each record is given t if its reported Contribution of Blood to the fish's body burden is strictly below 0.02. Records at or above 0.02 are given f.

Known results for compounds:
>>> print(df.to_string())
   smiles_representation  cat
0             CCCCCCCCCN    f
1         CCCCCCCCCCCCCN    t
2         CCCCCCCCCN(C)C    f
3     CCCCCCCCCCCCCN(C)C    f
4          CCCCCCCCCCCCN    t

Query: # check: Contribution of Blood to the fish's body burden < 0.02 for `CCCCCCCCCCCCCCCCN`
Reply: t

---

# Tested on: rainbow trout (Oncorhynchus mykiss)
# EXPERIMENT SUMMARY: Contribution of tissues to fish body burden
# Assay type: in vivo
# CONDITION PARAMETERS: fraction, Fish #2
OBSERVATION TYPE: Contribution of Liver to the fish's body burden
Just the number, please, no unit attached.

Query: Find the recorded Contribution of Liver to the fish's body burden belonging to `CCCCCCCCCN(C)C` and report it.
Reply: 0.08

---

# EXPERIMENT SUMMARY: Tissue concentrations in rainbow trout after 7 d exposure via water (two mixtures)
# Format: in vivo, Oncorhynchus mykiss
# CONDITION PARAMETERS: rainbow trout (Oncorhynchus mykiss), in vivo, pH 7.5, Concentration in muscle
# Experimental: The study was conducted with rainbow trout (Oncorhynchus mykiss) weighing between 98 and 165 g. The fish were purchased from Nordic trout Sweden AB and held in the aquaria facility prior to the experiment in February 2018. Ethical approval for the experiments was obtained from Stockholms djurförsöksetiska nämnd (decision 9967-2017). The experiments were conducted in 300 L fiberglass aquaria with a water renewal rate of 1.3 L min^–1 (MIX 1) and 1.45 L min^–1 (MIX 2). […]
OBSERVATION TYPE: concentration at 7 d (ng/g)
The answer is to be given in ng/g; state only the numeric part.

In [3]: df
Out[3]:
   smiles_representation  units_label  reported_measurement
0      CCCCCCCCCCCCCCCCN         ng/g                    90

Query: Find the recorded concentration at 7 d belonging to `CCCCCCCCCCCCCN` and report it.
Reply: 451

---

# System: rainbow trout (Oncorhynchus mykiss)
# EXPERIMENT SUMMARY: Surface area-normalized mucus-water and gill-water distribution coefficients
# CONDITION PARAMETERS: from average concentrations in gills and water, calculated gill surface
Gill-water distribution coefficient (DG-W) reference
The answer is to be given in mLcm-2; state only the numeric part.

Below are worked cases with known answers.
   smiles_representation  reported_measurement
0          CCCCCCCCCCCCN                    28
1         CCCCCCCCCCCCCN                    62
2             CCCCCCCCCN                  0.44
3     CCCCCCCCCCCCCN(C)C                    58

Here is another compound to look at.
Query: Find the recorded Gill-water distribution coefficient (DG-W) belonging to `CCCCCCCCCN(C)C` and report it.
Reply: 0.30

---

# Tested on: rainbow trout (Oncorhynchus mykiss)
# EXPERIMENT SUMMARY: Contribution of tissues to fish body burden
# Format: in vivo
# CONDITION PARAMETERS: mean across fish, Figure 1; Q10, Q14 maximum estimates
% contribution to body burden, Liver reference
The answer is to be given in %; state only the numeric part.

Query: // fetch rainbow trout (Oncorhynchus mykiss) % contribution to body burden, Liver for `CCCCCCCCCCCCCN`
Reply: 21

---

# Tested on: rainbow trout (Oncorhynchus mykiss)
# EXPERIMENT SUMMARY: Contribution of tissues to fish body burden
# Type: in vivo
# CONDITION PARAMETERS: fraction, Fish #6
OBSERVATION TYPE: Contribution of Mucus to the fish's body burden
Just the number, please, no unit attached.

Query: Find the recorded Contribution of Mucus to the fish's body burden belonging to CCCCCCCCCCCCN [P12, Dodecylamine] and report it.
Reply: 0.18

Query: Find the recorded Contribution of Mucus to the fish's body burden belonging to CCCCCCCCCCCCCN [P13, tridecylamine] and report it.
Reply: 0.09

Query: Find the recorded Contribution of Mucus to the fish's body burden belonging to CCCCCCCCCCCCCCCCN [P16, hexadecylamine] and report it.
Reply: 0.06

Query: Find the recorded Contribution of Mucus to the fish's body burden belonging to CCCCCCCCCN(C)C [T9, N,N-dimethylnonylamine] and report it.
Reply: 0.08

Query: Find the recorded Contribution of Mucus to the fish's body burden belonging to CCCCCCCCCCCCCN(C)C [T13, N,N-dimethyltridecylamine] and report it.
Reply: 0.11

Query: Find the recorded Contribution of Mucus to the fish's body burden belonging to CCCCCCCCCN [P9, Nonylamine] and report it.
Reply: 0.35

---

# Test system: rainbow trout (Oncorhynchus mykiss)
# EXPERIMENT SUMMARY: Contribution of tissues to fish body burden
# Type: in vivo
# CONDITION PARAMETERS: mean across fish, Figure 1
Each record is given Fulfilled if its reported % contribution to body burden, Gills is strictly below 30%. Records at or above 30% are given Not fulfilled.

Known results for compounds:
>>> df
                                   compound                        system_tested            cat
0   CCCCCCCCCCCCCCCCN [P16, hexadecylamine]  rainbow trout (Oncorhynchus mykiss)  Not fulfilled
1  CCCCCCCCCN(C)C [T9, N,N-dimethylnonylamine]  rainbow trout (Oncorhynchus mykiss)      Fulfilled
2       CCCCCCCCCCCCCN [P13, tridecylamine]  rainbow trout (Oncorhynchus mykiss)      Fulfilled
3         CCCCCCCCCCCCN [P12, Dodecylamine]  rainbow trout (Oncorhynchus mykiss)      Fulfilled

Query: # check: % contribution to body burden, Gills < 30% for CCCCCCCCCCCCCN(C)C [T13, N,N-dimethyltridecylamine]
Reply: Fulfilled

---

# Test system: rainbow trout (Oncorhynchus mykiss)
# EXPERIMENT SUMMARY: Contribution of tissues to fish body burden
# Type: in vivo
# CONDITION PARAMETERS: in vivo
Each record is given Fulfilled if its reported % contribution to body burden, Gills is strictly below 20%. Records at or above 20% are given Not fulfilled.

Known results for molecules:
                                   molecule            cat
0  CCCCCCCCCCCCCCN(C)C [T14, N,N-dimethyltetradecylamine]  Not fulfilled
1  CCCCCCCCCCCCCC[N+](C)(C)C [Q14, N,N,N-trimethyl-1-tetradecylammonium]  Not fulfilled
2  CCCCCCCCCC[N+](C)(C)C [Q10, N,N,N-trimethyl-1-decylammonium]  Not fulfilled

Query: # check: % contribution to body burden, Gills < 20% for CCCCCCCCCCCCCCCCNC [S16, N-methylhexadecylamine]
Reply: Not fulfilled

Query: # check: % contribution to body burden, Gills < 20% for CCCCCCCCCCN(C)C [T10, N,N-dimethyldecylamine]
Reply: Fulfilled

---

# System: rainbow trout (Oncorhynchus mykiss)
# EXPERIMENT SUMMARY: Tissue concentrations in rainbow trout after 7 d exposure via water (two mixtures)
# Format: in vivo
# CONDITION PARAMETERS: rainbow trout (Oncorhynchus mykiss), in vivo, 7 d
OBSERVATION TYPE: Concentration in gills

Below are worked cases with known answers.
In [3]: df
Out[3]:
   smiles_representation                        system_tested        observation_type  reported_measurement
0         CCCCCCCCCCCCCN  rainbow trout (Oncorhynchus mykiss)  Concentration in gills   17 800 (12) ng g^–1
1          CCCCCCCCCCCCN  rainbow trout (Oncorhynchus mykiss)  Concentration in gills   20 000 (10) ng g^–1
2             CCCCCCCCCN  rainbow trout (Oncorhynchus mykiss)  Concentration in gills     1200 (12) ng g^–1

Here is another molecule to look at.
Query: Find the recorded Concentration in gills belonging to `CCCCCCCCCCCCCCCCN` and report it.
Reply: 8700 (15) ng g^–1

---

# Tested on: rainbow trout (Oncorhynchus mykiss)
# EXPERIMENT SUMMARY: Tissue concentrations in rainbow trout after 7 d exposure via water (two mixtures)
# Format: in vivo
# CONDITION PARAMETERS: rainbow trout (Oncorhynchus mykiss), in vivo, 7 d
OBSERVATION TYPE: Concentration in skin

Below are worked cases with known answers.
>>> print(df.to_string())
   smiles_representation                        system_tested  reported_measurement
0         CCCCCCCCCCCCCN  rainbow trout (Oncorhynchus mykiss)     2400 (19) ng g^–1
1             CCCCCCCCCN  rainbow trout (Oncorhynchus mykiss)      132 (36) ng g^–1
2      CCCCCCCCCCCCCCCCN  rainbow trout (Oncorhynchus mykiss)      420 (25) ng g^–1

Query: Find the recorded Concentration in skin belonging to `CCCCCCCCCCCCN` and report it.
Reply: 3900 (25) ng g^–1
